Assay: MTT assay, non-cancer cells BCRC60118
Format: cell-based
Conditions: human, embryonic fibroblast cells BCRC60118 (non-cancer), 30 μg/ml, read-out: cell viability of non-cancer cells
measurementKind: viability at 24 h, 30 μg/ml (%)
Field: numeric (%). Do not append units.

GET /value?item= CC1=C(/C=C/C(C)=C/C=C/C(C)=C/C=C/C=C(C)/C=C/C=C(C)/C=C/C2=C(C)C[C@@H](O)CC2(C)C)C(C)(C)C[C@H](O)C1 (stereo in doubt) &field=viability at 24 h, 30 μg/ml returns 102

###

Assay: MTT assay, non-cancer cells BCRC 60153
Type: cell-based
Details: human, skin fibroblast cells BCRC 60153 (non-cancer), 30 μg/ml, read-out: cell viability of non-cancer cells
measurementKind: viability at 24 h, 30 μg/ml (%)
Express the result in % but write the number alone.

viability at 24 h, 30 μg/ml reading for CC1=C(/C=C/C(C)=C/C=C/C(C)=C/C=C/C=C(C)/C=C/C=C(C)/C=C/C2=C(C)C[C@@H](O)CC2(C)C)C(C)(C)C[C@H](O)C1 (stereo in doubt) : 95.8

Provenance of the data: patent US20120095108A1
